Values compiled from patent US11999806B2.

- procedure.details: Cytotoxicity by CCK-8 in RD cells
- Assay type: cell-based
- measurement.parameters: human, RD cells, 6.125 μM, 24 h, CCK-8 4 h (Example 18); read-out: Cell viability (%)
No end group written: not given here.
We begin with a simple list: items and their reported viability at 24 h, 6.125 µM.
# value in %; strip the unit string

YGRKKRRQRRRGSGEAVREYCK [BP8] : 101

In the following, a different sequence is considered.
For YGRKKRRQRRRGSGEAVREYCKEK [BP10] the sequence record lists viability at 24 h, 6.125 µM as 98.5

* * *

- procedure.details: Cytotoxicity by CCK-8 in RD cells
- Type: cell-based
- measurement.parameters: human, RD cells, 25 μM, 24 h, CCK-8 4 h (Example 18); read-out: Cell viability (%)
No end group written: not given here.
readout.label: viability at 24 h, 25 µM (%)
# value in %; strip the unit string

YGRKKRRQRRRGSGEAVREYCK [BP8] : 93.4

For YGRKKRRQRRRGSGEAVREYCKEK [BP10] the sequence record lists viability at 24 h, 25 µM as 109

* * *

- procedure.details: Cytotoxicity by CCK-8 in RD cells
- Format: cell-based
- measurement.parameters: human, RD cells, 12.5 μM, 24 h, CCK-8 4 h (Example 18); read-out: Cell viability (%)
No end group written: not given here.
readout.label: viability at 24 h, 12.5 µM (%)
# value in %; strip the unit string

YGRKKRRQRRRGSGEAVREYCK [BP8] : 94.9

In the following, a different sequence is considered.
For YGRKKRRQRRRGSGEAVREYCKEK [BP10] the sequence record lists viability at 24 h, 12.5 µM as 94.8

* * *

- procedure.details: Cytotoxicity by CCK-8 in RD cells
- Type: cell-based
- measurement.parameters: human, RD cells, 100 μM polypeptide, 24 h, untreated = 100%; read-out: Cell viability (%)
No end group written: not given here.
We begin with a simple list: items and their reported viability at 24 h, 100 µM.
# value in %; strip the unit string

RRRRRRRREEVRQYCRDQ [P2] : 90.1

In the following, a different sequence is considered.
For RRRRRRRRAISDLLAS [P1] the sequence record lists viability at 24 h, 100 µM as 100

* * *

- procedure.details: Cytotoxicity by CCK-8 in RD cells
- Format: cell-based
- measurement.parameters: human, RD cells, 9.375 μM, 24 h; read-out: Cell viability (%)
No end group written: not given here.
readout.label: viability at 24 h, 9.375 µM
Answer format: value, then unit.

For YGRKKRRQRRRGSGEEVRQYCR [ER] the sequence record lists viability at 24 h, 9.375 µM as 98.5%

* * *

We begin with a simple list: items and their reported viability at 24 h, 25 µM.
- procedure.details: Cytotoxicity by CCK-8 in Vero cells
- Format: cell-based
- measurement.parameters: 25 μM, 24 h, read-out: Cell viability (%)
No end group written: not given here.
# value in %; strip the unit string

YGRKKRRQRRRGSGEAVREYCK [BP8] : 96.6

In the following, a different sequence is considered.
For YGRKKRRQRRRGSGEAVREYCKEK [BP10] the sequence record lists viability at 24 h, 25 µM as 117

* * *

- procedure.details: Cytotoxicity by CCK-8 in Vero cells
- Assay type: cell-based
- measurement.parameters: 100 μM, 24 h, read-out: Cell viability (%)
No end group written: not given here.
We begin with a simple list: items and their reported viability at 24 h, 100 µM.
# value in %; strip the unit string

YGRKKRRQRRRGSGEAVREYCKEK [BP10] : 92.8

In the following, a different sequence is considered.
For YGRKKRRQRRRGSGEAVREYCK [BP8] the sequence record lists viability at 24 h, 100 µM as 99.7

* * *

- procedure.details: Cytotoxicity by CCK-8 in RD cells
- Assay type: cell-based
- measurement.parameters: human, RD cells, 75 μM, 24 h; read-out: Cell viability (%)
No end group written: not given here.
readout.label: viability at 24 h, 75 µM (%)
# value in %; strip the unit string

For YGRKKRRQRRRGSGEEVRQYCR [ER] the sequence record lists viability at 24 h, 75 µM as 89.7

* * *

- procedure.details: Cytotoxicity by CCK-8 in RD cells
- Format: cell-based
- measurement.parameters: human, RD cells, 4.6875 μM, 24 h; read-out: Cell viability (%)
No end group written: not given here.
readout.label: viability at 24 h, 4.6875 µM (%)
# value in %; strip the unit string

For YGRKKRRQRRRGSGEEVRQYCR [ER] the sequence record lists viability at 24 h, 4.6875 µM as 99.1

* * *

- procedure.details: Cytotoxicity by CCK-8 in RD cells
- Format: cell-based
- measurement.parameters: human, RD cells, 37.5 μM, 24 h; read-out: Cell viability (%)
- Protocol: The experiment was performed as follows. • (1) RD cells were plated in a 96-well plate at 100 μl per well. • (2) After the cells reached 70%-80% confluence, the MEM medium containing 10% serum was replaced with a MEM medium containing 2% serum. […] RD cells were used to test the antiviral effect of polypeptide P1. […] The test was carried out 24 hours later, and the cell viability was detected using the CCK-8 kit. […]
No end group written: not given here.
readout.label: viability at 24 h, 37.5 µM (%)
# value in %; strip the unit string

For YGRKKRRQRRRGSGEEVRQYCR [ER] the sequence record lists viability at 24 h, 37.5 µM as 94.8

* * *

- procedure.details: Cytotoxicity by CCK-8 in RD cells
- Format: cell-based
- measurement.parameters: human, RD cells, 300 μM, 24 h; read-out: Cell viability (%)
No end group written: not given here.
readout.label: viability at 24 h, 300 µM (%)
# value in %; strip the unit string

For YGRKKRRQRRRGSGEEVRQYCR [ER] the sequence record lists viability at 24 h, 300 µM as 42.2

* * *

- Test system: CVB5
- procedure.details: Anti-CVB5 effect in RD cells, qRT-PCR
- Type: cell-based, Coxsackievirus B5
- measurement.parameters: Example 20, read-out: IC50 against CVB5
No end group written: not given here.
We begin with a simple list: items and their reported IC50.
# value in µM; strip the unit string

YGRKKRRQRRRGSGEAVREYCKEK [BP10] : 1.33

In the following, a different sequence is considered.
For YGRKKRRQRRRGSGEAVREYCK [BP8] on CVB5, measured IC50 was 1.54

* * *

We begin with a simple list: items and their reported viability at 24 h, 50 µM.
- procedure.details: Cytotoxicity by CCK-8 in Vero cells
- Type: cell-based
- measurement.parameters: 50 μM, 24 h, read-out: Cell viability (%)
No end group written: not given here.
# value in %; strip the unit string

YGRKKRRQRRRGSGEAVREYCK [BP8] : 94.4

For YGRKKRRQRRRGSGEAVREYCKEK [BP10] the sequence record lists viability at 24 h, 50 µM as 109

* * *

- procedure.details: Cytotoxicity by CCK-8 in RD cells
- Format: cell-based
- measurement.parameters: human, RD cells, 100 μM, 24 h, CCK-8 4 h (Example 18); read-out: Cell viability (%)
- Experimental: The experiment was performed as follows. • (1) RD cells were plated in a 96-well plate at 100 μl per well. • (2) After the cells reached 70%-80% confluence, the MEM medium containing 10% serum was replaced with a MEM medium containing 2% serum. […] RD cells were used to test the antiviral effect of polypeptide P1. […] The test was carried out 24 hours later, and the cell viability was detected using the CCK-8 kit. […]
No end group written: not given here.
We begin with a simple list: items and their reported viability at 24 h, 100 µM.
# value in %; strip the unit string

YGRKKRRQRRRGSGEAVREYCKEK [BP10] : 107

For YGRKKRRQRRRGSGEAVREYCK [BP8] the sequence record lists viability at 24 h, 100 µM as 93.1

* * *

- procedure.details: Cytotoxicity by CCK-8 in Vero cells
- Format: cell-based
- measurement.parameters: 6.125 μM, 24 h, read-out: Cell viability (%)
No end group written: not given here.
readout.label: viability at 24 h, 6.125 µM (%)
# value in %; strip the unit string

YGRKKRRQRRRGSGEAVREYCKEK [BP10] : 119

In the following, a different sequence is considered.
For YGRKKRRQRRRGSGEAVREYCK [BP8] the sequence record lists viability at 24 h, 6.125 µM as 101

* * *

- procedure.details: Cytotoxicity by CCK-8 in RD cells
- Type: cell-based
- measurement.parameters: human, RD cells, 0.01 μM polypeptide, 24 h, untreated = 100%; read-out: Cell viability (%)
No end group written: not given here.
readout.label: viability at 24 h, 0.01 µM (%)
# value in %; strip the unit string

RRRRRRRREEVRQYCRDQ [P2] : 98

In the following, a different sequence is considered.
For RRRRRRRRAISDLLAS [P1] the sequence record lists viability at 24 h, 0.01 µM as 103
